Target: AoSrtA (Actinomyces oris, UniProt A0A0X8K1J2)
Sequence (A0A0X8K1J2 entry or part of it): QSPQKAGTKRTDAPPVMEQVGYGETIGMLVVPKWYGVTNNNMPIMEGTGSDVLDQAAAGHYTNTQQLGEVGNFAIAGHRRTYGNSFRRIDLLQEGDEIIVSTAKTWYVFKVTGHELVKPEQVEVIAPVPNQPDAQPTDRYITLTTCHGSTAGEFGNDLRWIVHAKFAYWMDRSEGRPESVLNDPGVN
Test: FRET-based in vitro sortase activity assay, AoSrtA
Assay type: biochemical
Settings: IC50 (A. oris), AoSrtA 10 µM, Abz-LAQTG-Dap(Dnp)-NH2, 1 hour preincubation
quantity name: IC50

| compound | reading |
| --- | --- |
| Cc1cc(NS(=O)(=O)c2ccc(C(C)(C)C)cc2)n(C2CCS(=O)(=O)C2)n1 (stereo not drawn) | > 486 µM |
| Cc1ccc(S(=O)(=O)Cc2nc3cc(-c4ccccc4)sc3c(=O)[nH]2)cc1 | > 479 µM |
| O=C(c1cc(-c2ccc(F)cc2)n[nH]1)N1CC(c2nc(-c3ccccc3)no2)C1 | > 488 µM |
